Data provenance is the antibiotic and cytotoxicity screens of Wong et al. (2023).

Tested on: HSkMC
assay.text: cytotoxicity call (relative viability < 0.9)
test.context: 10 µM
The whole screen tested about 39,000 compounds, of which about 1,500 (3.8%) were called active. The list comes from a sample in which actives are over-represented; it also holds close analogues and randomly drawn compounds.
test.readout: cytotoxicity call

{"columns": ["compound.string", "target.system", "cytotoxicity call"],
 "data": [
  ["C[C@H](CO)N1C[C@H](C)[C@@H](CN(C)CC2CCCCC2)Oc2c(NC(=O)Nc3ccc(C(F)(F)F)cc3)cccc2C1=O", "HSkMC", "active"],
  ["C[C@@H]1CN([C@H](C)CO)C(=O)c2cccc(NC(=O)Nc3ccc(C(F)(F)F)cc3)c2O[C@H]1CN(C)CC1CCCCC1", "HSkMC", "active"],
  ["Cc1noc(C)c1NC(=O)Nc1ccc2c(c1)C(=O)N([C@H](C)CO)C[C@@H](C)[C@H](CN(C)Cc1ccc(C(=O)O)cc1)OCCCC[C@@H](C)O2", "HSkMC", "inactive"],
  ["C[C@@H]1CN([C@H](C)CO)C(=O)c2cccc(NC(=O)Nc3ccc(F)cc3)c2O[C@@H]1CN(C)CC1CCCCC1", "HSkMC", "inactive"],
  ["C[C@@H]1CN([C@H](C)CO)C(=O)c2cccc(NC(=O)Nc3ccc(C(F)(F)F)cc3)c2O[C@@H]1CN(C)CC1CCCCC1", "HSkMC", "active"],
  ["C[C@H]1CN([C@@H](C)CO)C(=O)c2cccc(NC(=O)Nc3ccc(C(F)(F)F)cc3)c2O[C@H]1CN(C)CC1CCCCC1", "HSkMC", "inactive"]
]}

# evaluate next
Query: For the compound C[C@@H]1CN([C@@H](C)CO)C(=O)c2cccc(NC(=O)Nc3ccc(C(F)(F)F)cc3)c2O[C@@H]1CN(C)CC1CCCCC1 , give its measured cytotoxicity call value.
Response: inactive

---

Tested on: HSkMC
assay.text: cytotoxicity call (relative viability < 0.9)
test.context: 10 µM
The campaign covered roughly 39,000 compounds. About 1,500 (3.8%) were called active. This excerpt belongs to a sample that is enriched for actives.
Allowed answers: active, inactive

Look over these answered cases.
{"columns": ["compound", "label.value"],
 "data": [
  ["COc1cc(-c2cc(=O)c3c(s2)N(Cc2ccco2)[C@@H](c2ccc(O)c(OC)c2)CC3=O)ccc1O", "inactive"],
  ["Cc1noc(C)c1NC(=O)N(C)C[C@H]1OCCCC[C@@H](C)Oc2ccc(NS(=O)(=O)c3cccs3)cc2C(=O)N([C@@H](C)CO)C[C@H]1C", "inactive"],
  ["C[C@@H]1CN([C@@H](C)CO)C(=O)c2cc(NS(=O)(=O)c3ccc(Cl)cc3)ccc2O[C@@H](C)CCCCO[C@H]1CN(C)Cc1ccc(C(F)(F)F)cc1", "active"],
  ["C[C@]12C=CC(=O)N[C@@H]1CC[C@@H]1[C@@H]2CC[C@]2(C)[C@@H](C(=O)Nc3cc(C(F)(F)F)ccc3C(F)(F)F)CC[C@@H]12", "inactive"],
  ["Cc1ccc2cccc(OCCOc3ccccc3C(C)C)c2n1", "inactive"]
]}

Query: # outcome recorded in this test, key = C[C@@H]1CN([C@@H](C)CO)C(=O)c2cccc(NC(=O)Nc3cccc4ccccc34)c2O[C@@H]1CN(C)S(=O)(=O)c1ccc(Cl)cc1
Response: inactive

Query: Can you look up the reported call for CC(=O)OCC(=O)C12OC3(CCCC3)OC1CC1C3CCC4=CC(=O)C=CC4(C)C3(F)C(O)CC12C (centres undefined) for me?
Response: inactive

Query: Call for entry CCc1c(c/2[nH]c1/C=C/1\N=C(/C(=C/3\N=C(/C=C/4\N/C(=C2)C(=C4C)C=C)[C@@H](C)[C@@H]3CCC(=O)O)CC(=O)N[C@@H](CC(=O)O)C(=O)O)C(=C1C)C(=O)O)C :
Response: inactive

Query: Call for entry C[C@H](CO)N1C[C@H](C)[C@H](CN(C)S(=O)(=O)c2ccc(F)cc2)Oc2c(NC(=O)Nc3cccc4ccccc34)cccc2C1=O :
Response: active

Query: Please indicate how the test categorized Nc1nc(=O)n([C@@H]2CS[C@H](CO)O2)cc1F .
Response: inactive

Query: # outcome recorded in this test, key = CC=Cc1ccc2n(c1=O)C[C@H]1[C@H](CO)[C@@H](C(=O)NCCc3cn(C)cn3)[C@@H]2N1C(=O)C1CC1
Response: inactive

Query: // param item: C[C@H]1CN([C@@H](C)CO)C(=O)c2cccc(NC(=O)Nc3ccc(C(F)(F)F)cc3)c2O[C@@H]1CN(C)Cc1ccc(-c2ccccc2)cc1 ; yields the recorded call
Response: inactive

Query: What call does the record list for Cc1ccc(S(=O)(=O)N(c2cccc(-n3cc(CCC(=O)NO)nn3)c2)S(=O)(=O)c2ccc(C)cc2)cc1 ?
Response: active

Query: Can you look up the reported call for CC(/C=C/C(=O)NO)=C\c1ccccc1OCc1cn(CCNC(=O)[C@@H](NS(=O)(=O)c2ccc(C)cc2)C(C)C)nn1 for me?
Response: inactive

Query: # fetch the recorded call for C[C@@H]1CN([C@@H](C)CO)C(=O)c2cccc(NC(=O)Nc3cccc4ccccc34)c2O[C@H]1CN(C)S(=O)(=O)c1ccc(F)cc1 here
Response: inactive

Query: Would you mind telling me which call this test gave C[C@@H]1CN([C@@H](C)CO)C(=O)c2cccc(NC(=O)Nc3cccc4ccccc34)c2O[C@@H]1CN(C)S(=O)(=O)c1cccs1 ?
Response: inactive

---

Tested on: HSkMC (human skeletal muscle cells)
assay.text: cytotoxicity call (relative viability < 0.9)
test.context: 10 µM
The whole screen tested about 39,000 compounds, of which about 1,500 (3.8%) were called active. What follows is part of a selection rich in actives, with near analogues and random picks from the rest.
Valid outcomes are listed here; reply with one: YES (active), NO (inactive)

Illustrative cases are given below, each with its answer.
{"columns": ["molecule", "label.value"],
 "data": [
  ["OCc1ccccc1-c1ccccc1", "NO"],
  ["COC1C=COC2(C)Oc3c(C)c(O)c4c(O)c(c(C=NN5CCN(C)CC5)c(O)c4c3C2=O)NC(=O)C(C)=CC=CC(C)C(O)C(C)C(O)C(C)C(OC(C)=O)C1C (stereo not given)", "NO"],
  ["C[C@@H]1CN([C@@H](C)CO)C(=O)c2cccc(NS(C)(=O)=O)c2O[C@@H]1CN(C)S(=O)(=O)c1cccs1", "NO"],
  ["CO[C@H]1/C=C\\O[C@@]2(C)Oc3c(C)c(O)c4c(c3C2=O)[C@]2(C=C(NC(=O)/C(C)=C\\C=C/[C@@H](C)[C@@H](O)[C@@H](C)[C@@H](O)[C@@H](C)[C@@H](OC(C)=O)[C@@H]1C)C4=O)OCC(=O)O2", "YES"],
  ["C[C@H](CO)N1C[C@H](C)[C@@H](CN(C)C(=O)CCCN(C)C)OCCCC[C@H](C)Oc2ccc(NC(=O)Nc3ccc(C(F)(F)F)cc3)cc2C1=O", "NO"],
  ["C[C@H](CO)N1C[C@H](C)[C@H](CN(C)C(=O)Nc2ccc(C(F)(F)F)cc2)OCCCC[C@H](C)Oc2ccc(NC(=O)NC3CCCCC3)cc2C1=O", "NO"],
  ["C[C@@H]1CCCCO[C@@H](CN(C)Cc2ccccc2)[C@@H](C)CN([C@@H](C)CO)C(=O)c2cc(NC(=O)CCC(F)(F)F)ccc2O1", "NO"],
  ["CCOC(=O)c1cc2c(c(-c3cccc(-c4cccc(F)c4)c3)n1)[C@H](CCO)N(S(=O)C(C)(C)C)C2 (stereo not given in full)", "NO"],
  ["O=c1[nH]cc(F)c(=O)[nH]1", "NO"],
  ["CN(C)CC(=O)N[C@@H]1CC[C@@H](CC(=O)NCCN2CCCCC2)O[C@H]1CO", "NO"]
]}

Query: Entry COc1ccc(NC(=O)Nc2ccc3c(c2)C(=O)N([C@@H](C)CO)C[C@@H](C)[C@@H](CN(C)C(=O)NC2CCCCC2)OCCCC[C@H](C)O3)cc1 : call = ?
Response: NO

Query: Status in this test for COc1ccc(S(=O)(=O)N(C)C[C@@H]2Oc3cc(C#CC4CC4)ccc3S(=O)(=O)N([C@@H](C)CO)C[C@@H]2C)cc1 ?
Response: NO

Query: For CC1=Nc2ccccc2NC(C)(C)C1 , what call appears in the results of this test?
Response: NO

Query: Assay result, entry C[C@H](CO)N1C[C@H](C)[C@@H](CN(C)S(=O)(=O)c2cn(C)cn2)Oc2ccc(NC(=O)NC3CCCCC3)cc2C1=O — outcome?
Response: NO

Query: Could you check what this test reported for C[C@H](CO)N1C[C@H](C)[C@H](CN(C)C(=O)Nc2cccc3ccccc23)OCCCC[C@H](C)Oc2ccc(NS(C)(=O)=O)cc2C1=O ?
Response: NO
